Data origin: ChEMBL document CHEMBL1914378

Test system: MDA-MB-231
Test: Cytotoxicity against human MDA-MB-231 cells after 24 hrs by MTT assay
Assay type: functional, cell-based
Settings: MDA-MB-231, 24 h
Structures can show the parent of a compound that is named as a salt.
The compounds listed here are annotated with their IC50.
Report the value in µM with no unit label.

Observe how each entry below is paired with its result.
{"Compound": "Cc1ccc(NC(=O)c2ccc(CN3CCN(C)CC3)cc2)cc1Nc1nccc(-c2cccnc2)n1 [IMATINIB MESYLATE]", "Measurement Unit": "µM", "Reported Measurement": 1.8}
{"Compound": "COc1ccc(S(=O)(=O)Nc2ccc(C)c(Nc3nccc(-c4cc(OC)c(OC)c(OC)c4)n3)c2)cc1OC", "Measurement Unit": "µM", "Reported Measurement": 7.48}
{"Compound": "Cc1ccc(NS(=O)(=O)c2ccc3ccccc3c2)cc1Nc1nccc(-c2cccnc2)n1", "Measurement Unit": "µM", "Reported Measurement": 8.31}
{"Compound": "Cc1ccc(NS(=O)(=O)c2ccc(-c3ccccc3)cc2)cc1Nc1nccc(-c2cccnc2)n1", "Measurement Unit": "µM", "Reported Measurement": 8}

Per the records, this compound ( Cc1ccc(NS(=O)(=O)c2ccc(Cl)cc2)cc1Nc1nccc(-c2cccnc2)n1 ) has IC50 equal to 7.79

Value of IC50 reported for the compound COc1cc(-c2ccnc(Nc3cc(NS(=O)(=O)c4ccc5ccccc5c4)ccc3C)n2)cc(OC)c1OC is 7.55

====

Test system: MDA-MB-231
Experiment: Cytotoxicity against human MDA-MB-231 cells after 24 hrs by MTT assay
Format: functional, cell-based
Conditions: MDA-MB-231, 24 h
Quantity Name: pIC50
# pIC50 = -log10(concentration in molar units)

{"Smiles Str": "COc1cc(-c2ccnc(Nc3cc(NS(=O)(=O)c4ccc(-c5ccccc5)cc4)ccc3C)n2)cc(OC)c1OC", "pIC50": 5.16}
{"Smiles Str": "Cc1ccc(NS(=O)(=O)c2cnc3ccccc3c2)cc1Nc1nccc(-c2cccnc2)n1", "pIC50": 5.14}

Then there is this compound:
Measured pIC50, COc1ccc(S(=O)(=O)Nc2ccc(C)c(Nc3nccc(-c4cc(OC)c(OC)c(OC)c4)n3)c2)cc1 : 5.16
